Target Entity: HLA-A*2402 (human)
Assay Procedure: iTopia net score;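 also: iScore from iTopia software combining peptide binding, affinity over a dilution series and off-rate after warming to body temperature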
# note: boundary value 0.1 maps to F; iScore below it maps to T

Task: Report whether reported iScore is lower than 0.1 (strictly) for ALKVKYEEL [cdr2 355-363 ALKVKYEEL]
Output: T

Task: Report whether reported iScore is lower than 0.1 (strictly) for SQSLLEEMF [cdr2 287-295 SQSLLEEMF]
Output: T

Task: Report whether reported iScore is lower than 0.1 (strictly) for MYTTNQEQL [cdr2 52-60 MYTTNQEQL]
Output: F

Task: Report whether reported iScore is lower than 0.1 (strictly) for SSLAGSDIV [cdr2 316-324 SSLAGSDIV]
Output: T

Task: Report whether reported iScore is lower than 0.1 (strictly) for AVKQRGISL [cdr2 337-345 AVKQRGISL]
Output: F

Task: Report whether reported iScore is lower than 0.1 (strictly) for LFKEIFSCI [cdr2 425-433 LFKEIFSCI]
Output: F

Task: Report whether reported iScore is lower than 0.1 (strictly) for AYRARALEL [cdr2 242-250 AYRARALEL]
Output: F

Task: Report whether reported iScore is lower than 0.1 (strictly) for EYLTKQVEL [cdr2 64-72 EYLTKQVEL]
Output: F

Task: Report whether reported iScore is lower than 0.1 (strictly) for YLTKQVELL [cdr2 65-73 YLTKQVELL]
Output: F

Task: Report whether reported iScore is lower than 0.1 (strictly) for ELYDLRQHF [cdr2 163-171 ELYDLRQHF]
Output: T

Task: Report whether reported iScore is lower than 0.1 (strictly) for TMLQAQLSL [cdr2 203-211 TMLQAQLSL]
Output: F

Task: Report whether reported iScore is lower than 0.1 (strictly) for QHAKVYEQL [cdr2 79-87 QHAKVYEQL]
Output: T

Task: Report whether reported iScore is lower than 0.1 (strictly) for QHFVYDHVF [cdr2 169-177 QHFVYDHVF]
Output: T

Task: Report whether reported iScore is lower than 0.1 (strictly) for VPDSLYVPF [cdr2 275-283 VPDSLYVPF]
Output: F

Task: Report whether reported iScore is lower than 0.1 (strictly) for EQLQEIEYL [cdr2 58-66 EQLQEIEYL]
Output: F

Task: Report whether reported iScore is lower than 0.1 (strictly) for YDHVFAEKI [cdr2 173-181 YDHVFAEKI]
Output: T

Task: Report whether reported iScore is lower than 0.1 (strictly) for SFACLKELY [cdr2 157-165 SFACLKELY]
Output: F

Task: Report whether reported iScore is lower than 0.1 (strictly) for IFSCIKKTK [cdr2 429-437 IFSCIKKTK]
Output: F

Task: Report whether reported iScore is lower than 0.1 (strictly) for YKALFKEIF [cdr2 422-430 YKALFKEIF]
Output: F
